Data provenance: patent US20220040297A1

tgt: CD3ε homodimer protein (human, UniProt P07766 23-126, limits assumed)
Sequence (P07766 23-126 limits assumed): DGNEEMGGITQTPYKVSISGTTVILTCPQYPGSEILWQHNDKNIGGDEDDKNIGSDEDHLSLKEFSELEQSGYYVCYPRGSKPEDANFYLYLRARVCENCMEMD
experiment description: SPR, immobilized CD3ε homodimer;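 also: biacore T200 surface plasmon resonance at 25 °C, antibody variants flowed as analytes over amine-coupled CD3ε homodimer on a CM4 chip, variant binding amount divided by that of GLS3000 antibody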
Task for the reader: assign each of the following binders its reported ratio of amounts bound (vs GLS3000).

Reference set (2 entries):
GLS3000 R54P (antibody, name in Kabat numbering, V domains shown, one-arm format as m2) VH: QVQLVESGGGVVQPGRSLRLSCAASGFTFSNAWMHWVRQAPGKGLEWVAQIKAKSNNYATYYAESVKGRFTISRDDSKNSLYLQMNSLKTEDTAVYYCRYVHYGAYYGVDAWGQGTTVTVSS VL: DIVMTQSPLSLPVTPGEPASISCRSSQSLVHSNRNTYLHWYQQKPGQAPRLLIYKVSNPFSGVPDRFSGSGSGTDFTLKISRVEAEDVGVYYCGQGTQVPYTFGQGTKLEIK | 0.84
GLS3000 G91D (antibody, name in Kabat numbering, V domains shown, one-arm format as m2) VH: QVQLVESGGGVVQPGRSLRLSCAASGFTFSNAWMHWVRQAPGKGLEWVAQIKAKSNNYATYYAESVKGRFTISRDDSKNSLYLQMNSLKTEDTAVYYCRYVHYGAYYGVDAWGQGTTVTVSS VL: DIVMTQSPLSLPVTPGEPASISCRSSQSLVHSNRNTYLHWYQQKPGQAPRLLIYKVSNRFSGVPDRFSGSGSGTDFTLKISRVEAEDVGVYYCGQDTQVPYTFGQGTKLEIK | 0.16

Exam item: Consider the binder GLS3000 S25A (antibody, name in Kabat numbering, V domains shown, one-arm format as m2) VH: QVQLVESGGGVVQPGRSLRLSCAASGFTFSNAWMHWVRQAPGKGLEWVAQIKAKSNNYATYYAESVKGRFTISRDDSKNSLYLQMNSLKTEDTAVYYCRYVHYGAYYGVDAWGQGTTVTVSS VL: DIVMTQSPLSLPVTPGEPASISCRASQSLVHSNRNTYLHWYQQKPGQAPRLLIYKVSNRFSGVPDRFSGSGSGTDFTLKISRVEAEDVGVYYCGQGTQVPYTFGQGTKLEIK and give its measured ratio of amounts bound (vs GLS3000).
Marked response: 0.92
